Parameter IC50: see the listing below.
# system name: human PTPN2 (1-387) (Homo sapiens (Human))
# Sequence (P17706 other isoform, or with tags, fused parts or gaps): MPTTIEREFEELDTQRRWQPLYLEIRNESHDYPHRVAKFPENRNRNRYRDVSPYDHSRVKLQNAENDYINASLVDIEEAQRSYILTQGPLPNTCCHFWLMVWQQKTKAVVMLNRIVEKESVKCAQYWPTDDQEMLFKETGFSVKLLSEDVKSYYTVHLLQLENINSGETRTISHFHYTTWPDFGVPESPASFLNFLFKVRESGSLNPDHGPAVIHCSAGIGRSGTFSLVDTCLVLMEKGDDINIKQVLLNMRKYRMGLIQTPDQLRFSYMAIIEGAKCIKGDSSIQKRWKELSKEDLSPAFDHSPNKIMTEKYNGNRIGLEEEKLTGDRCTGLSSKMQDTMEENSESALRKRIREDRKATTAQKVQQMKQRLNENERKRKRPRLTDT
Give a bare numeral; the unit nM is implied.

As a guide, the following entries are already answered.
molecule=NC(=O)c1cc(OCCC(F)(F)F)c2sc(C(F)(F)P(=O)(O)O)c(Br)c2c1 system_name="human PTPN2 (1-387) (Homo sapiens (Human))" val=338
molecule=O=C(NCc1ncc(F)cn1)c1ccc2sc(C(F)(F)P(=O)(O)O)c(Br)c2c1 system_name="human PTPN2 (1-387) (Homo sapiens (Human))" val=7340
molecule=N#Cc1c(C(F)(F)P(=O)(O)O)sc2ccc(C(=O)NC3CC(F)(F)C3)cc12 system_name="human PTPN2 (1-387) (Homo sapiens (Human))" val=1200

Field IC50 (human PTPN2 (1-387) (Homo sapiens (Human))), entry N#Cc1c(C(F)(F)P(=O)(O)O)sc2c(OCCCS(N)(=O)=O)cc(-c3nc[nH]n3)cc12 : 2.5

Field IC50 (human PTPN2 (1-387) (Homo sapiens (Human))), entry N#Cc1cccc(-c2cccc(NC(=O)c3ccc4sc(C(F)(F)P(=O)(O)O)c(Br)c4c3)c2)c1 : 719

Field IC50 (human PTPN2 (1-387) (Homo sapiens (Human))), entry O=P(O)(O)C(F)(F)c1sc2ccc(-c3cnn[nH]3)cc2c1Br : 86.2

Field IC50 (human PTPN2 (1-387) (Homo sapiens (Human))), entry O=C(NCCn1cccn1)c1ccc2sc(C(F)(F)P(=O)(O)O)c(Br)c2c1 : 7170

Field IC50 (human PTPN2 (1-387) (Homo sapiens (Human))), entry CS(=O)(=O)CCCOc1cc(-c2cnn[nH]2)cc2c(Br)c(C(F)(F)P(=O)(O)O)sc12 : 2.5

Field IC50 (human PTPN2 (1-387) (Homo sapiens (Human))), entry NC(=O)c1cc(OCc2cccc(C(F)(F)F)c2)c2sc(C(F)(F)P(=O)(O)O)c(Br)c2c1 : 79.6

Field IC50 (human PTPN2 (1-387) (Homo sapiens (Human))), entry Cc1c[nH]c(CNC(=O)c2ccc3sc(C(F)(F)P(=O)(O)O)c(Br)c3c2)n1 : 5460

Field IC50 (human PTPN2 (1-387) (Homo sapiens (Human))), entry CC1(C)CC(COc2cc(C(N)=O)cc3c(Br)c(C(F)(F)P(=O)(O)O)sc23)C1 : 78.6

Field IC50 (human PTPN2 (1-387) (Homo sapiens (Human))), entry Nc1cc(OCCCC(F)(F)F)c2sc(C(F)(F)P(=O)(O)O)c(Br)c2c1 : 338
